Values from PubChem BioAssay (NCI)

Test system: SF-539 CNS
Assay Procedure: NCI-60 one-dose screen, 48 h
Condition Notes: 10 µM unless noted
This is part of a sample that, as a whole, favours compounds with a hit. Of some 83,000 tested, about 20% had one in any assay. Calls of active or inactive are those of the source. How the source made its calls: active means growth percent below 10; inactive means the rest.
Outcomes: 1.0 = active, 0.0 = inactive

Molecule	Assigned Class
Nc1ccc(-c2nc3cc(Oc4ccc(Oc5ccc6[nH]c(-c7ccc(N)cc7)nc6c5)cc4)ccc3[nH]2)cc1	0.0
COc1cc(C2C(C#N)=C(N)OC3=C2C(=O)c2ccccc2C3=O)cc(OC)c1OC (stereo unspecified)	1.0
CCOC(=O)C1=C(C)N=c2s/c(=C\c3ccccc3O)c(=O)n2C1c1ccc(OC)c2ccccc12 (stereo unspecified)	1.0
Clc1ncccc1Nc1ccc2nnc(-c3ccncc3)n2n1	0.0
O=C(NCc1ccccc1)C1CN(c2ccc(Cl)cc2)N(c2ccc(Cl)cc2)C1=O (stereo unspecified)	0.0
O=C1Nc2ccccc2/C1=C/c1cccs1	0.0
C=CCN1C(=O)/C(=c2\sc3n(c2=O)NC2C(N=3)N(CC)C(=O)N2CC)c2ccccc21 (stereo unspecified)	1.0
O=C1OC(c2ccccc2)(c2ccccc2)c2ccsc21	0.0
O=C(CSc1nc2ccccc2c(=O)n1-c1ccccc1)Nc1ccc(C(=O)/C=C/c2ccc(Cl)cc2)cc1	0.0
CC(=O)c1ccc(Nc2nc(NCCO)nc(Nc3ccc(Cl)cc3)n2)cc1	0.0
COC(=O)/C(=C\c1c(C)[nH]c2ccccc12)S(=O)(=O)c1ccccc1	1.0
Nc1cccc(Nc2cc(S(=O)(=O)O)c(N)c3c2C(=O)c2ccccc2C3=O)c1	0.0
CCOC(=O)c1ccc(N=Cc2sc(=O)[nH]c2O)cc1	0.0
O=C1C(=O)c2c(ccc3ccccc23)-c2ccccc21	1.0
CN1C(=O)N(C)C2Nn3c(s/c(=C\c4ccc(Cl)cc4Cl)c3=O)=NC21 (stereo unspecified)	0.0
CCOC(=O)c1ccc2[nH]c(-c3ccccc3)cc(=O)c2c1	0.0
CSc1nc2c(c(=O)[nH]1)N=C1c3ccccc3C(=O)C1C(c1ccccc1)N2 (stereo unspecified)	0.0
COC(=O)C1=Nc2ccc(F)cc2/C1=C/c1sc(=S)[nH]c1O	1.0
O=c1[nH]nnc2c1ncn2C1OC(CO)C(O)C1O (stereo unspecified)	0.0
O=c1oc2ccc(-c3ccc(F)cc3F)cc2c(=O)n1-c1cccc(C(F)(F)F)c1	1.0
O=C(NCc1ccco1)C1CN(c2ccc(Cl)cc2)N(c2ccc(Cl)cc2)C1=O (stereo unspecified)	0.0

* * *

System: MOLT-4 leukemia
Assay Procedure: NCI-60 one-dose screen, 48 h
Condition Notes: 10 µM unless noted
Description: Growth inhibition of the MOLT-4 human tumor cell line is measured as a screen for anti-cancer activity. Cells are grown in 96 well plates and exposed to the test compound for 48 hours. Compounds are tested at a single concentration, which is 10^-5 M for most compounds. The reported endpoint is percent growth (GI% or GIPRCNT), where numbers from 0 - 100% represent growth inhibition, and numbers from -100% - 0 represent cell death. For example, a value of 40 represents 60% growth inhibition. […]
The panel holds about 83,000 compounds, 20% with a hit somewhere; the sample as a whole holds those more often. Activity calls are given as the source filed them. How the source made its calls: active means growth percent below 10; inactive means the rest.
Labels: active, inactive

Molecule	Assigned Class
CSc1nc2c(c(=O)n1C)N=C1c3ccccc3C(=O)C1C(c1ccccc1)N2 (centres undefined)	inactive
Cc1cccc2c(=O)c3c(sc12)c(NCCCNCCO)nc1ccccc13	active
CCN(CCO)CCNc1ccc(C)c2sc3cc(Cl)ccc3c(=O)c12	active
COc1cc(C#N)cc2[nH]c(=O)oc12	inactive
